System: ATR kinase
Assay: Luminex xMAP DNA Damage/Genotoxicity panel, ATR kinase content
Format: cell-based
Conditions: Jurkat cells; 12a 0.006 µM, 13d 0.004 µM per 100,000 cells; 6 and 12 h

[
  {
    "COMPOUND": "CC(C)[C@@H]1NC(=O)[C@H](C)OC(=O)[C@@H](C(C)C)NC(=O)[C@@H](C(C)C)OC(=O)[C@H](C(C)C)NC(=O)[C@H](C)OC(=O)[C@@H](C(C)C)NC(=O)[C@@H](C(C)C)OC(=O)[C@H](C(C)C)NC(=O)[C@H](C)OC(=O)[C@@H](C(C)C)NC(=O)[C@@H](C(C)C)OC1=O [valinomycin]",
    "level of ATR kinase": "elevated levels"
  },
  {
    "COMPOUND": "CC1(C)CC[C@]2(C(=O)OCCCCCC[n+]3ccccc3)CC[C@]3(C)C(=CCC4[C@@]5(C)CC[C@H](O)C(C)(C)C5CC[C@]43C)C2C1 (stereo partly shown) [12a]",
    "level of ATR kinase": "significant increase"
  },
  {
    "COMPOUND": "CO[C@H]1C[C@@H]2CC[C@@H](C)[C@@](O)(O2)C(=O)C(=O)N2CCCC[C@H]2C(=O)O[C@H]([C@H](C)C[C@@H]2CC[C@@H](O)[C@H](OC)C2)CC(=O)[C@H](C)/C=C(\\C)[C@@H](O)[C@@H](OC)C(=O)[C@H](C)C[C@H](C)/C=C/C=C/C=C/1C [rapamycin, reference compound]",
    "level of ATR kinase": "elevated levels"
  },
  {
    "COMPOUND": "CC(=O)[O-].C[n+]1ccn(CCCCCCOC(=O)[C@]23CCC(C)(C)CC2C2=CCC4[C@@]5(C)CC[C@H](O)C(C)(C)C5CC[C@@]4(C)[C@]2(C)CC3)c1 (stereo partly shown) [13d]",
    "level of ATR kinase": "significant increase"
  }
]

###

Test system: Jurkat
Test: In vitro cytotoxicity, IC50 by flow cytometry (Guava ViaCount)
Assay type: cell-based
Settings: Jurkat cells
MEASURED_PARAMETER: log10 IC50 (log10 of the value in nM)

[
  {
    "COMPOUND": "C=C(C)[C@@H]1CC[C@]2(C(=O)[O-])CC[C@]3(C)[C@H](CC[C@@H]4[C@@]5(C)CC[C@H](O)C(C)(C)[C@@H]5CC[C@]43C)[C@@H]12.CCn1cc[n+](C)c1 [17a]",
    "log10 IC50": 1.26
  },
  {
    "COMPOUND": "CCn1cc[n+](C)c1.C[C@H]1[C@H](C)CC[C@]2(C(=O)[O-])CC[C@]3(C)C(=CC[C@@H]4[C@@]5(C)CC[C@H](O)C(C)(C)[C@@H]5CC[C@]43C)[C@H]12 [16a]",
    "log10 IC50": 1.52
  },
  {
    "COMPOUND": "Cn1cc[n+](CCCCCCOC(=O)C23CCC(C)(C)CC2C2=CCC4C5(C)CCC(O)C(C)(C)C5CCC4(C)C2(C)CC3)c1.[F][Sb-]([F])([F])([F])([F])[F] (centres unmarked) [13b]",
    "log10 IC50": 0.95
  },
  {
    "COMPOUND": "Cn1cc[n+](CCCCCCOC(=O)[C@]23CCC(C)(C)C[C@H]2C2=CC[C@@H]4[C@@]5(C)CC[C@H](O)C(C)(C)[C@@H]5CC[C@@]4(C)[C@]2(C)CC3)c1.F[P-](F)(F)(F)(F)F [13c]",
    "log10 IC50": 0.90
  },
  {
    "COMPOUND": "C[C@H](O)C(=O)[O-].C[n+]1ccn(CCCCCCOC(=O)[C@]23CCC(C)(C)CC2C2=CCC4[C@@]5(C)CC[C@H](O)C(C)(C)C5CC[C@@]4(C)[C@]2(C)CC3)c1 (some centres unmarked) [13g]",
    "log10 IC50": 0.85
  },
  {
    "COMPOUND": "C[n+]1ccn(CCCCCCOC(=O)[C@]23CCC(C)(C)CC2C2=CCC4[C@@]5(C)CC[C@H](O)C(C)(C)C5CC[C@@]4(C)[C@]2(C)CC3)c1 (some centres unmarked) [13a]",
    "log10 IC50": 0.48
  },
  {
    "COMPOUND": "C[n+]1ccn(CCCCCCOC(=O)[C@]23CCC(C)(C)CC2C2=CCC4[C@@]5(C)CC[C@H](O)C(C)(C)C5CC[C@@]4(C)[C@]2(C)CC3)c1.O=C([O-])c1ccccc1O (some centres unmarked) [13f]",
    "log10 IC50": 0.90
  },
  {
    "COMPOUND": "C[n+]1ccn(CCCCCCOC(=O)[C@]23CCC(C)(C)CC2C2=CCC4[C@@]5(C)CC[C@H](O)C(C)(C)C5CC[C@@]4(C)[C@]2(C)CC3)c1.O=S(=O)([O-])c1ccccc1 (some centres unmarked) [13e]",
    "log10 IC50": 1.04
  },
  {
    "COMPOUND": "C[n+]1ccn(CCCCCCOC(=O)[C@]23CCC(C)(C)CC2C2=CCC4[C@@]5(C)CC[C@H](O)C(C)(C)C5CC[C@@]4(C)[C@]2(C)CC3)c1 (some centres unmarked) [9c]",
    "log10 IC50": 1.41
  },
  {
    "COMPOUND": "CC(=O)[O-].C[n+]1ccn(CCCCCCOC(=O)[C@]23CCC(C)(C)CC2C2=CCC4[C@@]5(C)CC[C@H](O)C(C)(C)C5CC[C@@]4(C)[C@]2(C)CC3)c1 (some centres unmarked) [13d]",
    "log10 IC50": 0.60
  },
  {
    "COMPOUND": "CC1(C)CCC2(C(=O)[O-])CCC3(C)C(=CCC4C5(C)CCC(O)C(C)(C)C5CCC43C)C2C1.CC[n+]1ccn(C)c1 (centres unmarked) [15a]",
    "log10 IC50": 1.67
  }
]

###

Tested on: K562
Assay: In vitro cytotoxicity, IC50 by flow cytometry (Guava ViaCount)
Format: cell-based
Conditions: Homo sapiens, K562, K562 cells

[
  {
    "COMPOUND": "CC1(C)CC[C@]2(C(=O)OCCCCCC[N+]3(C)CCCCC3)CC[C@]3(C)C(=CCC4[C@@]5(C)CC[C@H](O)C(C)(C)C5CC[C@]43C)C2C1 (some centres unmarked) [12b]",
    "IC50": "0.021 µM"
  },
  {
    "COMPOUND": "C[n+]1ccn(CCCCOC(=O)[C@]23CCC(C)(C)CC2C2=CCC4[C@@]5(C)CC[C@H](O)C(C)(C)C5CC[C@@]4(C)[C@]2(C)CC3)c1 (some centres unmarked) [9b]",
    "IC50": "0.149 µM"
  },
  {
    "COMPOUND": "CC1(C)CC[C@]2(C(=O)OCCCCCC[N+]3(C)CCCC3)CC[C@]3(C)C(=CCC4[C@@]5(C)CC[C@H](O)C(C)(C)C5CC[C@]43C)C2C1 (some centres unmarked) [12c]",
    "IC50": "0.024 µM"
  },
  {
    "COMPOUND": "CC(=O)O[C@H]1CC[C@@]2(C)C(CC[C@]3(C)C2CC=C2C4CC(C)(C)CC[C@]4(C(=O)OCCCCCCOC(=O)c4nccn4C)CC[C@]23C)C1(C)C (some centres unmarked) [compound 3]",
    "IC50": "> 4 µM"
  },
  {
    "COMPOUND": "CC1(C)CC[C@]2(C(=O)OCCCCCC[n+]3ccccc3)CC[C@]3(C)C(=CCC4[C@@]5(C)CC[C@H](O)C(C)(C)C5CC[C@]43C)C2C1 (some centres unmarked) [12a]",
    "IC50": "0.007 µM"
  },
  {
    "COMPOUND": "C=C(C)[C@@H]1CC[C@]2(C(=O)OCCn3cc[n+](C)c3)CC[C@]3(C)C(CCC4[C@@]5(C)CC[C@H](O)C(C)(C)C5CC[C@]43C)C12 (some centres unmarked) [11a]",
    "IC50": "0.076 µM"
  },
  {
    "COMPOUND": "C[C@@H]1CC[C@]2(C(=O)OCCn3cc[n+](C)c3)CC[C@]3(C)C(=CCC4[C@@]5(C)CC[C@H](O)C(C)(C)C5CC[C@]43C)C2[C@H]1C (some centres unmarked) [10a]",
    "IC50": "0.031 µM"
  },
  {
    "COMPOUND": "CC1(C)CC[C@]2(C(=O)OCCCCCC[N+]3(C)CCOCC3)CC[C@]3(C)C(=CCC4[C@@]5(C)CC[C@H](O)C(C)(C)C5CC[C@]43C)C2C1 (some centres unmarked) [12d]",
    "IC50": "0.069 µM"
  }
]

Reference source for all entries: paper PMC9913425
